Reference source: patent US20100304426A1

experiment: clinical; conditions: female, human, in vivo, po, 200 mg
REPORTED ENDPOINT: Tmax

INSERT INTO assay_data (input_smiles, measured_value) VALUES
  ('CC(=O)[C@H]1CC[C@H]2[C@@H]3CCC4=CC(=O)CC[C@]4(C)[C@H]3CC[C@]12C', '2.63 h');

----------
test: clinical; conditions: female, human, in vivo, 200 mg
REPORTED ENDPOINT: AUC (ng·h/mL)

INSERT INTO measurements (input_smiles, unit_label, measured_value) VALUES
  ('CC(=O)[C@H]1CC[C@H]2[C@@H]3CCC4=CC(=O)CC[C@]4(C)[C@H]3CC[C@]12C', 'ng·h/mL', 1.6);

----------
assay: clinical; settings: female, human, in vivo, 200 mg, Cmax
REPORTED ENDPOINT: Cmax (ng/mL)

INSERT INTO results (compound, measured_value) VALUES
  ('CC(=O)[C@H]1CC[C@H]2[C@@H]3CCC4=CC(=O)CC[C@]4(C)[C@H]3CC[C@]12C [PROMETRIUM, pregn-4-ene-3,20-dione]', 1.05);

----------
assay: clinical; conditions: female, human, in vivo, po, 200 mg, AUC0-4 h
REPORTED ENDPOINT: AUC(0-t)

INSERT INTO results (input_smiles, measured_value) VALUES
  ('CC(=O)[C@H]1CC[C@H]2[C@@H]3CCC4=CC(=O)CC[C@]4(C)[C@H]3CC[C@]12C', '1.01 to 2.37 ng·h/mL');
